The measured values listed here are drawn from ChEMBL document CHEMBL3091366.

# Test system: A549
# experiment summary: Cytotoxicity against apoptotic-resistant human A549 cells assessed as growth inhibition after 72 hrs by MTT-based colorimetric assay
# Type: functional, cell-based
# settings: Homo sapiens, A549, 72 h
assay endpoint: pIC50
In simple prose, pIC50 is minus the logarithm base ten of a concentration in moles per litre.

Field pIC50 (entry CCCCOc1ncc(-c2ccccc2OC)n1C ) reads 4.06

Field pIC50 (entry C=CCCCCOc1nc(-c2ccccc2OC)cn1C ) reads 4.04

Field pIC50 (entry C=CCCCCOc1ccccc1-c1cnc(S(=O)(=O)c2ccccc2)n1C ) reads 4.42

Field pIC50 (entry Cn1c2cnc1OCCCCCCCCOc1cc(F)ccc1-2 ) reads 4.37

Field pIC50 (entry COc1ccccc1-c1cnc(OCC(F)(F)C(F)(F)C(F)(F)C(F)(F)C(F)(F)F)n1C ) reads 4.08

Field pIC50 (entry C=CCCCCOc1ccccc1-c1cnc(OCCCC=C)n1C ) reads 5.52
